These data points were gathered from ChEMBL document CHEMBL5113524.

- TEST_TARGET: OCT3 (SLC22A3) (Homo sapiens, UniProt O75751)
- Sequence (O75751 whole entry): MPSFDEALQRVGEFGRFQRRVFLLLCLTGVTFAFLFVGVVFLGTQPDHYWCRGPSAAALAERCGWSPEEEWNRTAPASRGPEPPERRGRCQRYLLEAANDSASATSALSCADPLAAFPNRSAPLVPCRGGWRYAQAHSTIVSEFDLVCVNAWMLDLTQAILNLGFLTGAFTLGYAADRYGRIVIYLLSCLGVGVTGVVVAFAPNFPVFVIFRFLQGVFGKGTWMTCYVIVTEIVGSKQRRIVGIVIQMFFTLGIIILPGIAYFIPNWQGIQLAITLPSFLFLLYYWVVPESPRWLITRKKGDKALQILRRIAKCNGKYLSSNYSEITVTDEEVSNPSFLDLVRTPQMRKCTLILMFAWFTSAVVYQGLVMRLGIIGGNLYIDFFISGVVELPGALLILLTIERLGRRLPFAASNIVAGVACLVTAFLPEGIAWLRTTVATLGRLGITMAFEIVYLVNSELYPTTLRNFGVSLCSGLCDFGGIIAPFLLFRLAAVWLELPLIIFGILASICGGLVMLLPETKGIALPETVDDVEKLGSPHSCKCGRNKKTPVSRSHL
- RUN_DESCRIPTION: Inhibition of human OCT3 mediated methylscopolamine uptake overexpressed in HEK293 cells at 20 uM incubated for 5 mins by HPLC-MS/MS analysis relative to control
- Assay type: cell-based
- MEASUREMENT_PARAMETERS: HEK293 cells overexpressing OCT3, probe methylscopolamine
molecules and their reported inhibition at 5 min, 20 µM
METRIC: inhibition at 5 min, 20 µM (%)

INSERT INTO results (molecule, metric, reported_result) VALUES
  ('CC[C@@H](CO)NCCN[C@@H](CC)CO [ETHAMBUTOL]', 'inhibition at 5 min, 20 µM', -13),
  ('CC[N+](CC)(CC)CC(=O)Nc1c(C)cccc1C', 'inhibition at 5 min, 20 µM', 15),
  ('CN(C)c1ccc(/C=C/c2cc[n+](C)cc2)cc1', 'inhibition at 5 min, 20 µM', 58),
  ('CC[N+](CC)(CC)Cc1ccccc1', 'inhibition at 5 min, 20 µM', 49);
